Plant response rating, Pigweed: recorded values
Tested on: pigweed (Amaranthus retroflexus)
Assay text: Test A postemergence, pigweed
Type: in vivo
Condition label: Postemergence, 500 g ai/ha; visual injury, 0 to 100 scale (0 no effect, 100 complete control), approx. 10 days
Form rule: numeric answer, no unit written next to it.

// below: answered compounds
Cc1cc(C)c(N(S(C)(=O)=O)S(=O)(=O)C(F)(F)F)cc1-c1cc(C(C)C)nn(C)c1=O [Compound 39] ... 0
Cc1cc(Cl)c(NS(=O)(=O)C(F)(F)F)cc1C(=O)N(C)C [Compound 23] ... 80

Data request: Give the reported Plant response rating, Pigweed for this compound. O=C(c1ccc(Cl)c(NS(=O)(=O)C(F)(F)F)c1)N1CCOCC1 [Compound 15]
Data returned: 30

----------
Tested on: corn (Zea mays)
Assay text: Test A1 preemergence, corn
Assay type: in vivo
Condition label: 125 g ai/ha, 0 to 100 scale, 0 no effect, 100 complete control
Endpoint label: Plant response rating, Corn
Form rule: numeric answer, no unit written next to it.

// below: answered molecules
Cc1cc(F)c(NS(=O)(=O)C(F)(F)F)cc1C1=NOC2(CCCC2)C1 ... 90
Cc1cc(C)c(N(COC(=O)C(C)(C)C)S(=O)(=O)C(F)(F)F)cc1N1CCC2(CCC(C)CC2)C1=O (stereo not drawn) ... 20

Data request: Give the reported Plant response rating, Corn for this molecule. `COC1CCN(C(=O)c2cc(NS(=O)(=O)C(F)(F)F)c(C)c(C)c2C)CC1`
Data returned: 90

----------
Plant response rating, Ryegrass, Italian: recorded values
System: Ryegrass, Italian (Italian ryegrass, Lolium multiflorum)
Assay text: Test A1 postemergence, Ryegrass, Italian
Assay type: in vivo
Condition label: Postemergence, 125 g ai/ha; 0 to 100 scale

// below: answered compounds
Cc1c(NS(=O)(=O)C(F)(F)F)cc(C(=O)N2CC(C)OC(C)C2)c(C)c1C (stereo not drawn) [Compound 327] ... 30
Cc1cc(Br)c(NS(=O)(=O)C(F)(F)F)cc1C1=NOC2(CCCC2)C1 ... 30

Okay, next one:
Data request: Give the reported Plant response rating, Ryegrass, Italian for this compound. Cc1cc(C)c(N(COC(=O)C(C)C)S(=O)(=O)C(F)(F)F)cc1C1=NOC2CCCC12 (stereo not drawn)
Data returned: 30

----------
Tested on: kochia (Bassia scoparia)
Assay text: Test A1 preemergence, kochia
Type: in vivo
Condition label: 125 g ai/ha, 0 to 100 scale, 0 no effect, 100 complete control
Plant response rating, Kochia: recorded values
Form rule: numeric answer, no unit written next to it.

// below: answered compounds
Cc1cc(C2CC2)c(NS(=O)(=O)C(F)(F)F)cc1C1=NOC2(CCCC2)C1 ... 0
CCC1ON=C(c2cc(NS(=O)(=O)C(F)(F)F)c(C)cc2C)C1CC (centres unmarked) ... 30
Cc1cc(F)c(NS(=O)(=O)C(F)(F)F)cc1C1=NOC2(CCCC2)C1 ... 20
Cc1cc(C)c(N(COC(=O)C(C)(C)C)S(=O)(=O)C(F)(F)F)cc1N1CCC2(CCC(C)CC2)C1=O (centres unmarked) ... 0

Okay, next one:
Data request: Give the reported Plant response rating, Kochia for this compound. Cc1cc(C)c(N(COC(=O)C(C)C)S(=O)(=O)C(F)(F)F)cc1C1=NOC2CCCC12 (centres unmarked)
Data returned: 70
